Target: TREM2 extracellular domain (ECD) (residues 19-131, C-terminally biotinylated, deglycosylated or glycosylated) (Homo sapiens);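 also: Bio-layer interferometry in 50 mM HEPES pH 7.5 with 150 mM NaCl and 0.1% Tween, double-referenced with blank wells and unrelated-protein sensors, equilibrium response fitted versus concentration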
Sequence (Q9NZC2 19-131): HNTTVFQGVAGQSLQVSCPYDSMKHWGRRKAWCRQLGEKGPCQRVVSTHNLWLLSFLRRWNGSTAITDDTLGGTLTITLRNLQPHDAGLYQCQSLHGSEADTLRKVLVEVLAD
Experiment: biochemical
Details: Human BLI (Kd; nM) (deglycosylated), Table 4A; deglycosylated human TREM2 ECD; steady-state KD, 25° C.
*1 amine or outer side, *2 acyl side, *3 side chain or, on linkers, in order; H or OH if unused. Where a SMILES comes first, the peptide text is derived from it. Bridges are numbered along the chain shown (N, C = ends). [ ]: non-standard residue; d: D form. TATA = O=C(CC[*:1])N1CN(C(=O)CC[*:2])CN(C(=O)CC[*:3])C1; Phe(4-Me) = Cc1ccc(C[C@H](N)C(=O)O)cc1; 1Nal = N[C@@H](Cc1cccc2ccccc12)C(=O)O
Recorded Kd values for a group of compounds are listed next.
Enter your answer as a number in nM; do not include the unit.

query: Query (compound): CC(=O)N[C@H]1CSCCC(=O)N2CN3CN(C2)C(=O)CCSC[C@H](NC(=O)[C@H](Cc2ccc(O)cc2)NC(=O)[C@H](CCC(=O)O)NC(=O)[C@H](CO)NC1=O)C(=O)N[C@@H](Cc1ccccc1)C(=O)N[C@@H](Cc1c[nH]c2cc(Cl)ccc12)C(=O)N1CCC[C@H]1C(=O)N[C@@H](Cc1ccccc1)C(=O)N[C@@H](Cc1ccc(O)cc1)C(=O)N[C@@H](Cc1c[nH]cn1)C(=O)N[C@H](C(N)=O)CSCCC3=O [BCY19671, Ac-(SEQ ID NO: 42)] ; field requested: Kd
result: 1000

query: Query (compound): CC(=O)N[C@H]1CSCCC(=O)N2CN3CN(C2)C(=O)CCSC[C@H](NC(=O)[C@H](Cc2ccc(O)cc2)NC(=O)[C@H](CCC(=O)O)NC(=O)[C@H](CO)NC1=O)C(=O)N[C@@H](Cc1ccccc1)C(=O)N[C@@H](Cc1cccc2ccccc12)C(=O)N1CCC[C@H]1C(=O)N[C@@H](Cc1ccccc1)C(=O)N[C@@H](Cc1ccc(O)cc1)C(=O)N[C@@H](Cc1c[nH]cn1)C(=O)N[C@H](C(N)=O)CSCCC3=O [BCY19669, Ac-(SEQ ID NO: 37)] (Ac-CSEYCF[1Nal]PFYHC-NH2; linker 1-5-12 via TATA) ; field requested: Kd
result: 2000

query: Query (compound): CC(=O)N[C@H]1CSCCC(=O)N2CN3CN(C2)C(=O)CCSC[C@H](NC(=O)[C@H](Cc2ccc(O)cc2)NC(=O)[C@H](CCC(=O)O)NC(=O)[C@H](CO)NC1=O)C(=O)N[C@@H](Cc1ccccc1)C(=O)N[C@@H](Cc1c[nH]c2ccccc12)C(=O)N1CCC[C@H]1C(=O)N[C@@H](Cc1ccc(C)cc1)C(=O)N[C@@H](Cc1ccc(O)cc1)C(=O)N[C@@H](C)C(=O)N[C@H](C(N)=O)CSCCC3=O [BCY19299, Ac-(SEQ ID NO: 36)] (Ac-CSEYCFWP[Phe(4-Me)]YAC-NH2; linker 1-5-12 via TATA; C-terminus assumed) ; field requested: Kd
result: 18000
